target: T1, human epidermal growth factor receptor (EGFR) (human, UniProt P00533 25-1210); assay: flow cytometry on A431 cells
T1 construct: whole, on cells; also called HER-1; ErbB1
MEASURED_METRIC: binding result

BINDER	MEASURED_METRIC	MEAS_VALUE
humanized ICR62 antibody I-HLA7/I-KC (antibody, human IgG1, V domains shown) VH: QMQLVQSGPEVKKPGTSVKVSCKASGFTFTDYKIHWVRQARGQRLEWIGWINPNSGYSTYNEKFQGQVTISADKSISTAYLQWSSLKASDTAMYYCARLSPGGYYVMDAWGQGTTVTVSS VL: DIQMTQSPSSLSASVGDRVTITCRASQGINNYLNWYQQKPGKAPKRLIYNTNNLQTGVPSRFSGSGSGTEFTLTISSLQPEDFATYYCLQHNSFPTFGQGTKLEIKR	binding result	binds
humanized ICR62 antibody I-HHC/I-KB (antibody, human IgG1, V domains shown, I-HHC was also paired with I-KA and the chimeric light chain) VH: QVQLVQSGAEVKKPGSSVKVSCKGSGFTFTDYKIHWVRQAPGQGLEWMGYFNPNSGYSTYNEKFKSRVTITADKSTSTAYMELSSLRSEDTAVYYCARLSPGGYYVMDAWGQGTTVTVSS VL: DIQMTQSPSSLSASVGDRVTITCKASQNINNYLNWYQQKPGKAPKRLIYNTNNLQTGVPSRFSGSGSGTEYTLTISSLQPEDFATYYCLQHNSFPTFGQGTKLEIKR	binding result	binds
humanized ICR62 antibody I-HHF/I-KC (antibody, human IgG1, V domains shown) VH: QVQLVQSGAEVKKPGSSVKVSCKGSGFTFTDYKIHWVRQAPGQGLEWMGYFNPNSGYSNYAQKFQGRVTITADKSTSTAYMELSSLRSEDTAVYYCARLSPGGYYVMDAWGQGTTVTVSS VL: DIQMTQSPSSLSASVGDRVTITCRASQGINNYLNWYQQKPGKAPKRLIYNTNNLQTGVPSRFSGSGSGTEFTLTISSLQPEDFATYYCLQHNSFPTFGQGTKLEIKR	binding result	binds
